Entries and their pEC50
# study-target: T1, human CD27 (human, UniProt P26842 21-260)
# T1 construct: also called hCD27; HsCD27
# assay-explanation: cell ELISA on human CD27 CHOK1 cells, hIgG1
The quantity pEC50 is defined as the negative base-10 logarithm of the molar concentration.

| binder | experimental-endpoint | endpoint-result |
| --- | --- | --- |
| hCD27.131A VH6VL8 huIgG1 (antibody, V domains shown) VH: EIQLVQSGAEVKKPGASVKVSCKASGYTFTNYGMNWVKQAPGQGLKWMGWINTNTGEPTYAEEFKGRFTFTLDTSISTAYMELSSLRSEDTAVYYCAREGDAMDYWGQGTTVTVSS VL: EIVLTQSPATLSASPGERVTLSCSASSSVSYMHWYQQKPGQAPKRWIYDTSKLASGVPARFSGSGSGTDYSLTISSMEPEDFAVYYCQQWNSYPFTFGQGTKLEIK | pEC50 | 9.88 |
| hCD27.131A VH7VL8 huIgG1 (antibody, V domains shown) VH: EIQLVQSGAEVKKPGASVKISCKASGYTFTNYGMNWVKQAPGQGLKWMGWINTNTGEPTYAEEFKGRFTFTLDTSATTAYLEISSLRSEDTAVYYCAREGDAMDYWGQGTTVTVSS VL: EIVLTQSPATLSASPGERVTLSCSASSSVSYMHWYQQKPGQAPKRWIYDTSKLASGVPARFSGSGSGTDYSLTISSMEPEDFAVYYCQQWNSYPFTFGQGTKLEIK | pEC50 | 9.84 |

Proceeding to the next binder to report its pEC50.
Give its pEC50 value. Item: hCD27.131A VH7VL7 huIgG1 (antibody, V domains shown) VH: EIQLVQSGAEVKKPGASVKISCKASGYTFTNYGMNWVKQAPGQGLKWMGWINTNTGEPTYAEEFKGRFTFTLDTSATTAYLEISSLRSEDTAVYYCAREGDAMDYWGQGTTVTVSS VL: EIVLTQSPATLSLSPGERATLSCSASSSVSYMHWYQQKPGQAPKRWIYDTSKLASGVPARFSGSGSGTSYSLTISSLEPEDFATYYCQQWNSYPFTFGQGTKLEIK 9.68

Where do the numbers come from? From patent US20180086841A1.
